MEASURED_TARGET: human LTBR on cells (human, UniProt P36941 31-435)
PROTOCOL_DETAILS: cell-based or functional assay
I'd be grateful if you could share measured NFκB luc, 937.5 ng/ml, with x linker for these entries.
One number for each entry, in RLU.

Reference set, count: 2
P1AF0079 (antibody, human IgG1, kappa, L234A L235A, V domains shown, human IgG1 PG LALA; from transgenic rabbit immunization; also called LTBR (0079)) VH: EVQLLESGGALVQPGGSLRLSCAASGFTFSSYAMSWVRQAPGKGLEWVSVITGSSSSIDYADSVKGRFTISRDNSKNTLYLQMNSLRAEDTAVYYCAKGGSGVWSISTDFDYWGQGTLVTVSS VL: DIQMTQSPSFLSASVGDRVTITCQASQDISNYLNWYQQKPGKAPKHLIYAASSLHSGVPSRFSGSGSGAYFTLTITSLQPEDFATYYCQQSHSTPPTFGPGTKVDIKR :: 24900
P1AE1873 (CBE11) (antibody, human IgG1, kappa, L234A L235A, V domains shown) VH: EVQLVESGGGLVKPGGSLRLSCAASGFTFSDYYMYWFRQAPGKGLEWVATISDGGSYTYYPDSVKGRFTISRDNAKNSLYLQMSSLRAEDTAVYYCAREENGNFYYFDYWGQGTTVTVSS VL: DIQMTQSPSSLSASVGDRVTITCKAGQDIKSYLSWYQQKPGKAPKLLIYYATRLADGVPSRFSGSGSGTDYTLTISSLQPEDFATYYCLQHGESPWTFGGGTKLEIKR :: 67200

IN: Name the recorded NFκB luc, 937.5 ng/ml, with x linker for P1AE9459 (antibody, human IgG1, kappa, L234A L235A, V domains shown, human IgG1 PG LALA; from transgenic rabbit immunization) VH: EVQLVESGGGLVQPGGSLRLSCAASGFTFSSYTMNWVRQAPGKGLEWVSGVAPSGDRTYYTDSVKGRFTISRDNAKNTLDLQMTSLRAEDAAIYICAQGFAFTNWGQGTMVTVSS VL: DIQMTQSPSSLSASVGDRVTITCRASQGISSALAWFQQKPGKAPKRLIFDASSLDSGVPSRFSGSGSGTDFTLTISSLQPEDFATYYCQQYNNYPLTFGGGTKVEMKR .
OUT: 41600
